EXPERIMENT DESCRIPTION: Evaluation of conversion rate to active form in buffer solution (Experimental Example 1)
Assay type: physicochemical
CONDITION DETAILS: pH7.4, 3 hr, 37° C., 25 umol/L in buffer solution
QUANTITY NAME: Residual rate (%)
Use % as the unit, but write only the number.

Would you please look over these solved cases?
{"COMPOUND": "CC(C)N(CC1CCCCN1)C(=O)Oc1cc(O)c2c(=O)cc(-c3ccccc3Cl)oc2c1[C@H]1CCN(C)C[C@H]1O (stereo partly drawn) [Example 10]", "MEASURE UNIT": "%", "Residual rate": 0.8}
{"COMPOUND": "CN1CC[C@H](c2c(OC(=O)N(CCF)CC3CCCCN3)cc(O)c3c(=O)cc(-c4ccccc4Cl)oc23)[C@H](O)C1 (stereo partly drawn) [Example 11]", "MEASURE UNIT": "%", "Residual rate": 15.9}

# ---- query compound ----
Q) Tell me Residual rate reported for CCN(C[C@@H]1CCCCN1)C(=O)Oc1cc(O)c2c(=O)cc(-c3ccccc3Cl)oc2c1[C@H]1CCN(C)C[C@H]1O [Example 1, ditrifluoroacetate]
A) 6.9
